Target: Coagulation factor X (Homo sapiens, UniProt P00742)
Sequence (P00742 41-179 limits assumed): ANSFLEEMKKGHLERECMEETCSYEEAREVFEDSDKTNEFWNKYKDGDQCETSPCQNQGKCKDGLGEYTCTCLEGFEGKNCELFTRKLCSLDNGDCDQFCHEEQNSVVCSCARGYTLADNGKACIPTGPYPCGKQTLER
Sequence (P00742 235-488 limits assumed): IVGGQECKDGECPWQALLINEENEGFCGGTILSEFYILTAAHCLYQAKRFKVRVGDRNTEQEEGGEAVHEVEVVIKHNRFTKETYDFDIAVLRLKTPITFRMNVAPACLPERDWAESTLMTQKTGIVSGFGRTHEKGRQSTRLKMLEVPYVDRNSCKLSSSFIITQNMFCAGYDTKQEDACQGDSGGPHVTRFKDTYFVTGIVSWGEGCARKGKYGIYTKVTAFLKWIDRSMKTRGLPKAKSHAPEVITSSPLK
Quantity Kind: Ki

(Q) For Coagulation factor X (Homo sapiens, UniProt P00742), give the measured Ki of the entry C[C@@H]1CCC[C@H](n2cnc(-c3cc(Cl)ccc3-n3cc(Cl)nn3)cc2=O)c2cc(ccn2)-c2c(cnn2C(F)F)NC1=O
(A) > 13 µM

###

Biological target: Coagulation factor XII (Homo sapiens)
Sequence (P00748 20-372 limits assumed): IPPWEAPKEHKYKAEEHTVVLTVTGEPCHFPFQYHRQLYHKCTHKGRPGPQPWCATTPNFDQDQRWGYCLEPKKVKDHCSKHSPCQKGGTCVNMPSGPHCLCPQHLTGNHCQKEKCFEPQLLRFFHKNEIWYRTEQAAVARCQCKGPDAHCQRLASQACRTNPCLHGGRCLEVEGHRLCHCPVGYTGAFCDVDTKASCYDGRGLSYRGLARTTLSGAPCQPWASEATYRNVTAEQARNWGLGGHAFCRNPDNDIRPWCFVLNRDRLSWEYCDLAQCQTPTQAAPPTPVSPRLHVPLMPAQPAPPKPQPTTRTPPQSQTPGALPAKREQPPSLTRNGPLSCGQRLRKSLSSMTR
Sequence (P00748 373-615 limits assumed): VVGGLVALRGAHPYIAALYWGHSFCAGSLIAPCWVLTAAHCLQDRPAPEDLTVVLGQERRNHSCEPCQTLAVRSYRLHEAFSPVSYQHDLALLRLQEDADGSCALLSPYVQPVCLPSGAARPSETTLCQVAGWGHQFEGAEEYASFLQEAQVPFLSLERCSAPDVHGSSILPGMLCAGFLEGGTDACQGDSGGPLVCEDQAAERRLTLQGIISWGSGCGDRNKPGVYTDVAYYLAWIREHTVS
Experiment: Binding affinity to human coagulation factor 12a assessed as inhibition constant using H-D-Cyclohexylalanyl-glycyl-arginyl p-Nitroaniline as substrate measured upto 120 mins by spectrophotometric analysis
pKi: −log10 of the molar value.
Quantity Kind: pKi

(Q) Quickly give me recorded pKi for C[C@@H]1CCC[C@H](n2cnc(-c3cc(Cl)ccc3-n3cc(Cl)nn3)cc2=O)c2cc(ccn2)-c2c(cnn2C(F)F)NC1=O
(A) < 5.52

###

Test: AUC in cynomolgus monkey at 1.50 mg/kg, po
Assay type: ADME, organism-based, Macaca fascicularis
Parameters: dose 1.5 mg/kg
Settings: in vivo, 1.5 mg/kg
Quantity Kind: AUC (µM·h)
Express the result in µM·h but write the number alone.

(Q) Quickly give me recorded AUC for C[C@@H]1CCC[C@H](n2cnc(-c3cc(Cl)ccc3-n3cc(Cl)nn3)cc2=O)c2cc(ccn2)-c2c(cnn2C(F)F)NC1=O [MILVEXIAN]
(A) 1.22

###

Target: Vitamin K-dependent protein C (Homo sapiens, UniProt P04070)
Sequence (P04070 43-197 limits assumed): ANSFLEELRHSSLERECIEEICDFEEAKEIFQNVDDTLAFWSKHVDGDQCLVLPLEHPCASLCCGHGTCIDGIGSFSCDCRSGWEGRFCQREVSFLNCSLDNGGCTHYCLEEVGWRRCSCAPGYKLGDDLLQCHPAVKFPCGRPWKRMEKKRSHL
Sequence (P04070 212-461 limits assumed): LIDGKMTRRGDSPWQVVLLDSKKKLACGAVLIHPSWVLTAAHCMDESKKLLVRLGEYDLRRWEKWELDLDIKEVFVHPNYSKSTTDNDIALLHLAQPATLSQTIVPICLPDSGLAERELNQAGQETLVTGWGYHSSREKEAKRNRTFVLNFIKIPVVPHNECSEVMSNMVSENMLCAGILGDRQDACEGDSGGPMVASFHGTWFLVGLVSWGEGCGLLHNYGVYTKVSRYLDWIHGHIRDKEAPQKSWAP
Experiment: Binding affinity to human activated protein C assessed as inhibition constant using L-Pyroglutamyl-L-prolyl-L-arginine p-Nitroaniline as substrate measured upto 120 mins by spectrophotometric analysis
Quantity Kind: Ki

(Q) For Vitamin K-dependent protein C (Homo sapiens, UniProt P04070), give the measured Ki of the entry C[C@@H]1CCC[C@H](n2cnc(-c3cc(Cl)ccc3-n3cc(Cl)nn3)cc2=O)c2cc(ccn2)-c2c(cnn2C(F)F)NC1=O
(A) > 21 µM

###

Experiment: Half life in Sprague-Dawley rat at 1.04 mg/kg, po or 0.52 mg/kg, iv
Type: ADME, organism-based
Conditions: in vivo
Quantity Kind: half-life (min)
Express the result in min but write the number alone.

(Q) Quickly give me recorded half-life for C[C@@H]1CCC[C@H](n2cnc(-c3cc(Cl)ccc3-n3cc(Cl)nn3)cc2=O)c2cc(ccn2)-c2c(cnn2C(F)F)NC1=O
(A) 84

###

Molecular target: Neutrophil elastase (Homo sapiens, UniProt P08246)
Sequence (P08246 whole entry): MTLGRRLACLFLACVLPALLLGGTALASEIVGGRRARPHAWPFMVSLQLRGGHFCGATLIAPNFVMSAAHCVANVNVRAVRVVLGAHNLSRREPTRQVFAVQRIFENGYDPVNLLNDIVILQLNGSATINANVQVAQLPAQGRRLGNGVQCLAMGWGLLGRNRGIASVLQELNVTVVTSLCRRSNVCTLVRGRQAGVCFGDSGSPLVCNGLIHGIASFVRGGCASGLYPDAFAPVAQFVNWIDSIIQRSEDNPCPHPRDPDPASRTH
Assay: Binding affinity to human neutrophil elastase assessed as inhibition constant using Methoxysuccinyl-L-alanyl-L-alanyl-L-prolylL-valine p-Nitroaniline as substrate measured upto 120 mins by spectrophotometric analysis
Quantity Kind: Ki

(Q) Quickly give me recorded Ki for C[C@@H]1CCC[C@H](n2cnc(-c3cc(Cl)ccc3-n3cc(Cl)nn3)cc2=O)c2cc(ccn2)-c2c(cnn2C(F)F)NC1=O
(A) > 8 µM

###

Assay: Metabolic stability in human liver microsomes assessed as half life
Type: ADME, Microsome
# if value of half-life reaches 1 h, tag 1; if it stays below, tag 0

Previously resolved entries follow.
molecular_string=CCn1ncc2c1-c1ccnc(c1)[C@@H](N1CCC(c3cc(Cl)ccc3-n3ccnn3)=CC1=O)CCC[C@@H](C)C(=O)N2 label_value=0
molecular_string=C[C@@H]1CCC[C@H](N2CCC(c3cc(Cl)ccc3-n3ccnn3)=CC2=O)c2cc(ccn2)-c2c(cnn2C)NC1=O label_value=1
molecular_string=C[C@@H]1CCC[C@H](N2CCC(c3cc(Cl)ccc3-n3ccnn3)=CC2=O)c2cc(ccn2)-c2c(cnn2CC(F)F)NC1=O label_value=1
molecular_string=C[C@@H]1CCC[C@H](N2CCC(c3cc(Cl)ccc3-n3cc(Cl)nn3)=CC2=O)c2cc(ccn2)-c2c(cnn2C(F)F)NC1=O label_value=1
molecular_string=C[C@@H]1CCC[C@H](N2CCC(c3cc(Cl)ccc3-n3ccnn3)=CC2=O)c2cc(ccn2)-c2c(cnn2C(F)F)NC1=O label_value=1

(Q) Textbook exercise: given the entry C[C@@H]1CCC[C@H](N2CCC(c3cc(Cl)ccc3-n3ccnn3)=CC2=O)c2cc(ccn2)-c2c(cnn2C2CC2)NC1=O , state whether its half-life is greater than or equal to 1 h.
(A) 0

(Q) Textbook exercise: given the entry C[C@@H]1CCC[C@H](n2cnc(-c3cc(Cl)ccc3-n3cc(Cl)nn3)cc2=O)c2cc(ccn2)-c2c(cnn2C)NC1=O , state whether its half-life is greater than or equal to 1 h.
(A) 1
